Exercise: for every item that follows, state its recorded GI50.
Test system: RPMI-8226
Test: NCI tumour cell line growth inhibition, 48 h
Active and inactive are the calls of the source. Cut-off read from the data, not from the text of the source: active = GI50 up to about 1.1 µM and inactive = higher.

Request: GI50, test system RPMI-8226, entry [O-][S+]1c2ccccc2N=C(c2cccs2)CC1c1ccccc1O (stereo unspecified)
> 100 µM (inactive)

Request: GI50, test system RPMI-8226, entry CCOC(=O)C(NS(=O)(=O)c1ccccc1)(C(F)(F)F)P(=O)(OCC(C)C)OCC(C)C (stereo unspecified)
> 100 µM (inactive)

Request: GI50, test system RPMI-8226, entry `CCCCCc1cc(OC(=O)c2c(O)cc(OC)cc2CCCCC)cc(O)c1C(=O)O`
14.5 µM (inactive)

Request: GI50, test system RPMI-8226, entry `COC(=O)c1cc2c(cc1Cl)Sc1nnc(Nc3ccccc3)n1S2(=O)=O`
1.62 µM (inactive)

Request: GI50, test system RPMI-8226, entry O=C1OC(C2Cc3ccc4c(c3C2=O)CCC4)c2ccccc21 (stereo unspecified)
25.3 µM (inactive)

Request: GI50, test system RPMI-8226, entry `[O-][n+]1onc2c3nn(-c4ccccc4)nc3ccc21`
6.32 µM (inactive)

Request: GI50, test system RPMI-8226, entry C=CCC1CC(n2cc(C)c(=O)[nH]c2=O)OC1CO[Si](C)(C)C(C)(C)C (stereo unspecified)
11.9 µM (inactive)

Request: GI50, test system RPMI-8226, entry `Cc1ccc(N2C(=O)CS/C2=C(\C#N)c2nc3ccccc3[nH]2)cc1`
> 100 µM (inactive)

Request: GI50, test system RPMI-8226, entry `COC(=O)Cc1cc(=O)[nH]c2c1C(=O)CCC2`
> 100 µM (inactive)

Request: GI50, test system RPMI-8226, entry `C[N+](C)(C)C1(C(=O)[O-])CC1`
> 100 µM (inactive)

Request: GI50, test system RPMI-8226, entry CC(=O)NC(CCCCNC(=O)OC(C)(C)C)C(=O)O (stereo unspecified)
> 100 µM (inactive)
